Here, each record is paired with measured Cmax data.
# Experimental details: Pharmacokinetics in rats
# Assay type: in vivo
# Measurement conditions: rat, in vivo, oral 20 mg/kg, read-out: Cmax PO

| Compound | Cmax [µg/mL] |
| --- | --- |
| CC1(C)CCC(CN2CCN(c3ccc(C(=O)NS(=O)(=O)c4ccc(NCC5CCOCC5)c([N+](=O)[O-])c4)c(Oc4cnc5[nH]ccc5c4)c3)CC2)=C(c2ccc(Cl)cc2)C1 [ABT-199, Venetoclax, reference compound] | 6 |
| O=C(NS(=O)(=O)c1ccc(NCC2CCOCC2)c([N+](=O)[O-])c1)c1ccc(N2CCN(CC3=C(c4ccc(Cl)cc4)CC4(CCC4)CC3)CC2)cc1Oc1cnc2[nH]ccc2c1 | 1.32 |
| O=C(NS(=O)(=O)c1ccc(NC[C@H]2COCCO2)c([N+](=O)[O-])c1)c1ccc(N2CCN(CC3=C(c4ccc(Cl)cc4)CC4(CCC4)CC3)CC2)cc1Oc1cnc2[nH]ccc2c1 | 2.62 |

* * *

# Experimental details: Pharmacokinetics in rats
# Format: in vivo
# Measurement conditions: rat, in vivo, IV 2 mg/kg, read-out: Vss (iv)
Recorded endpoint: Vd (L/kg)

| Compound | Observed value |
| --- | --- |
| O=C(NS(=O)(=O)c1ccc(NC[C@H]2COCCO2)c([N+](=O)[O-])c1)c1ccc(N2CCN(CC3=C(c4ccc(Cl)cc4)CC4(CCC4)CC3)CC2)cc1Oc1cnc2[nH]ccc2c1 | 1.44 |
| O=C(NS(=O)(=O)c1ccc(NCC2CCOCC2)c([N+](=O)[O-])c1)c1ccc(N2CCN(CC3=C(c4ccc(Cl)cc4)CC4(CCC4)CC3)CC2)cc1Oc1cnc2[nH]ccc2c1 | 1.86 |
| CC1(C)CCC(CN2CCN(c3ccc(C(=O)NS(=O)(=O)c4ccc(NCC5CCOCC5)c([N+](=O)[O-])c4)c(Oc4cnc5[nH]ccc5c4)c3)CC2)=C(c2ccc(Cl)cc2)C1 [ABT-199, Venetoclax, reference compound] | 0.496 |

* * *

Entries annotated with measured AUC(0-t)
# Experimental details: Pharmacokinetics in rats
# Assay type: in vivo
# Measurement conditions: rat, in vivo, IV 2 mg/kg, read-out: AUC0-t IV

| Molecule | AUC(0-t) (ng·h/mL) |
| --- | --- |
| CC1(C)CCC(CN2CCN(c3ccc(C(=O)NS(=O)(=O)c4ccc(NCC5CCOCC5)c([N+](=O)[O-])c4)c(Oc4cnc5[nH]ccc5c4)c3)CC2)=C(c2ccc(Cl)cc2)C1 [ABT-199, Venetoclax, reference compound] | 5440 |
| O=C(NS(=O)(=O)c1ccc(NCC2CCOCC2)c([N+](=O)[O-])c1)c1ccc(N2CCN(CC3=C(c4ccc(Cl)cc4)CC4(CCC4)CC3)CC2)cc1Oc1cnc2[nH]ccc2c1 | 2660 |
| O=C(NS(=O)(=O)c1ccc(NC[C@H]2COCCO2)c([N+](=O)[O-])c1)c1ccc(N2CCN(CC3=C(c4ccc(Cl)cc4)CC4(CCC4)CC3)CC2)cc1Oc1cnc2[nH]ccc2c1 | 2900 |

* * *

# Tested on: RS4;11 cells
# Experimental details: RS4;11 cell viability, CCK-8 assay
# Format: cell-based
# Measurement conditions: Homo sapiens, RS4-11, 96 h, CCK-8, 4 days, read-out: RS4, 11 IC50 (Bcl-2 dependent)
Binary label based on IC50 with cut-off 30 nM: below gives Criterion met, not below gives Criterion not met.

| Chemical structure | Target of assay | Category label |
| --- | --- | --- |
| O=C(NS(=O)(=O)c1ccc(NC[C@H]2COCCO2)c([N+](=O)[O-])c1)c1ccc(N2CCN(CC3=C(c4ccc(Cl)cc4)CC4(CCC4)CC3)CC2)c(F)c1Oc1cnc2[nH]ccc2c1 | RS4;11 cells | Criterion met |
| O=C(NS(=O)(=O)c1ccc(NCC2CCOCC2)c([N+](=O)[O-])c1)c1ccc(C2=CCN(CC3=C(c4ccc(Cl)cc4)CC4(CC3)COC4)CC2)cc1Oc1cnc2[nH]ccc2c1 | RS4;11 cells | Criterion met |
| O=C(NS(=O)(=O)c1ccc(NCC2CCOCC2)c([N+](=O)[O-])c1)c1ccc(N2CCN(CC3=C(c4ccc(Cl)cc4)CC4(CCC4)CC3)CC2)c(F)c1Oc1cnc2[nH]ccc2c1 | RS4;11 cells | Criterion not met |
| O=C(NS(=O)(=O)c1ccc(NC[C@H]2COCCO2)c([N+](=O)[O-])c1)c1cc(F)c(N2CCN(CC3=C(c4ccc(Cl)cc4)CC4(CCC4)CC3)CC2)cc1Oc1cnc2[nH]ccc2c1 | RS4;11 cells | Criterion not met |
| O=C(NS(=O)(=O)c1cc([N+](=O)[O-])n(CC2CCOCC2)c1)c1ccc(N2CCN(CC3=C(c4ccc(Cl)cc4)CC4(CCC4)CC3)CC2)cc1Oc1cnc2[nH]ccc2c1 | RS4;11 cells | Criterion not met |

Provenance of the data: patent US10221174B2
